Exercise: state measured MIC80 for each of the compounds provided.
Assay: Antifungal activity against Candida utilis after 24 hrs by two fold serial dilution method
Format: functional
Conditions: Cyberlindnera jadinii
Write down the numeric answer in µg/mL and omit the unit.

-- ask Need MIC80, item "COc1ccc(Cn2cc(-c3cnc(N)s3)c(=O)c3cc(F)cc(F)c32)cc1"
-- reply 512

-- ask Need MIC80, item "CCCCCCCn1cc(-c2cnc(N)s2)c(=O)c2cc(F)cc(F)c21"
-- reply 64

-- ask Need MIC80, item "CCCCCCCCCCn1cc(-c2cnc(N)s2)c(=O)c2cc(F)cc(F)c21"
-- reply 128

-- ask Need MIC80, item "Nc1ncc(-c2cn(Cc3cccc(F)c3)c3c(F)cc(F)cc3c2=O)s1"
-- reply 64

-- ask Need MIC80, item "Nc1ncc(-c2cn(Cc3cccc(Cl)c3)c3c(F)cc(F)cc3c2=O)s1"
-- reply 256

-- ask Need MIC80, item "Nc1ncc(-c2cn(Cc3ccc([N+](=O)[O-])cc3)c3c(F)cc(F)cc3c2=O)s1"
-- reply 256

-- ask Need MIC80, item "C#CCn1cc(-c2cnc(N)s2)c(=O)c2cc(F)cc(F)c21"
-- reply 32

-- ask Need MIC80, item "Nc1ncc(-c2cn(Cc3ccc(Cl)cc3)c3c(F)cc(F)cc3c2=O)s1"
-- reply 256

-- ask Need MIC80, item "CCCCCCCCCCCCn1cc(-c2cnc(N)s2)c(=O)c2cc(F)cc(F)c21"
-- reply 64

-- ask Need MIC80, item "CCCCCn1cc(-c2cnc(N)s2)c(=O)c2cc(F)cc(F)c21"
-- reply 64

---

Test system: Candida albicans
Test: Antifungal activity against Candida albicans ATCC 76615 after 24 hrs by two fold serial dilution method
Type: functional
Conditions: ATCC 76615, 24 h
assay.readout: log10 MIC80 (log10 of the value in µg/mL)
Record value = log10 of MIC80 given in µg/mL.

-- ask Need log10 MIC80, item "COc1ccc(Cn2cc(-c3cnc(N)s3)c(=O)c3cc(F)cc(F)c32)cc1"
-- reply 2.41

-- ask Need log10 MIC80, item "CCCn1cc(-c2cnc(N)s2)c(=O)c2cc(F)cc(F)c21"
-- reply 1.51

-- ask Need log10 MIC80, item "Nc1ncc(-c2cn(Cc3ccccc3Cl)c3c(F)cc(F)cc3c2=O)s1"
-- reply 2.11

-- ask Need log10 MIC80, item "Nc1ncc(-c2cn(Cc3ccc([N+](=O)[O-])cc3)c3c(F)cc(F)cc3c2=O)s1"
-- reply 1.51

-- ask Need log10 MIC80, item "C#CCn1cc(-c2cnc(N)s2)c(=O)c2cc(F)cc(F)c21"
-- reply 1.20

-- ask Need log10 MIC80, item "Nc1ncc(-c2cn(Cc3ccc(Cl)cc3)c3c(F)cc(F)cc3c2=O)s1"
-- reply 2.71

-- ask Need log10 MIC80, item "CCCCCCCCCCCCn1cc(-c2cnc(N)s2)c(=O)c2cc(F)cc(F)c21"
-- reply 2.11

-- ask Need log10 MIC80, item "CCCCCCCCCCn1cc(-c2cnc(N)s2)c(=O)c2cc(F)cc(F)c21"
-- reply 1.81

-- ask Need log10 MIC80, item "Nc1ncc(-c2cn(Cc3ccc(F)cc3)c3c(F)cc(F)cc3c2=O)s1"
-- reply 1.51

-- ask Need log10 MIC80, item "Nc1ncc(-c2cn(Cc3cccc(Cl)c3)c3c(F)cc(F)cc3c2=O)s1"
-- reply 2.11

-- ask Need log10 MIC80, item "Nc1ncc(-c2cn(Cc3ccccc3F)c3c(F)cc(F)cc3c2=O)s1"
-- reply 1.81

-- ask Need log10 MIC80, item "Nc1ncc(-c2cn(Cc3cccc(F)c3)c3c(F)cc(F)cc3c2=O)s1"
-- reply 1.81

-- ask Need log10 MIC80, item OC(Cn1cncn1)(Cn1cncn1)c1ccc(F)cc1F [FLUCONAZOLE]
-- reply 0.00

-- ask Need log10 MIC80, item "CCCCCCCn1cc(-c2cnc(N)s2)c(=O)c2cc(F)cc(F)c21"
-- reply 1.51

-- ask Need log10 MIC80, item "CCCCCn1cc(-c2cnc(N)s2)c(=O)c2cc(F)cc(F)c21"
-- reply 1.81
